# PARTICULARS: dog, in vivo
Mean relative bioavailability % overview
REPORTED ENDPOINT: Mean relative bioavailability %

# COMPOUND, REPORTED ENDPOINT, RESULT
measured = [
    ("CCC1(c2cccc(OC(=O)NC(Cc3c[nH]c4ccccc34)C(=O)O)c2)CCCCN(C)C1.O=C(O)C(F)(F)F (mixture of isomers) [Meptazinol tryptophan carbamate TFA salt]", "Mean relative bioavailability %", "149%"),
    ("CCC1(c2cccc(OC(=O)NC(Cc3ccc(O)cc3)C(=O)O)c2)CCCCN(C)C1.O=C(O)C(F)(F)F (mixture of isomers) [Meptazinol tyrosine carbamate TFA salt]", "Mean relative bioavailability %", "52%"),
    ("CCC1(c2cccc(OC(=O)NC(CC(C)C)C(=O)O)c2)CCCCN(C)C1.O=C(O)C(F)(F)F (mixture of isomers) [Meptazinol leucine carbamate TFA salt]", "Mean relative bioavailability %", "70%"),
    ("CCC1(c2cccc(OC(=O)NCC(=O)O)c2)CCCCN(C)C1.O=C(O)C(F)(F)F (racemic) [Meptazinol glycine carbamate TFA salt]", "Mean relative bioavailability %", "79%"),
    ("CCC1(c2cccc(OC(=O)NC(C(=O)OC)C(C)C)c2)CCCCN(C)C1.Cl (mixture of isomers)", "Mean relative bioavailability %", "606%"),
    ("CCC1(c2cccc(OC(=O)NC(CC(=O)O)C(=O)O)c2)CCCCN(C)C1.O=C(O)C(F)(F)F (mixture of isomers)", "Mean relative bioavailability %", "273%"),
    ("CCC1(c2cccc(OC(=O)NC(C)C(=O)O)c2)CCCCN(C)C1.Cl (mixture of isomers) [Meptazinol alanine carbamate HCl salt]", "Mean relative bioavailability %", "116%"),
]

###

Simulated intestinal fluid (pH 6.8): % remaining after 2 h/37° C. for assorted molecules
# PARTICULARS: simulated gi fluid, pH 6.8
REPORTED ENDPOINT: Simulated intestinal fluid (pH 6.8): % remaining after 2 h/37° C. (%)

# MOLECULE, NUMBER
rows = [
    ("COC12CCC3(CC1C(C)(O)C(C)(C)C)C1Cc4ccc(OC(=O)NC(CC(=O)O)C(=O)O)c5c4C3(CCN1CC1CC1)C2O5 (stereo not shown) [Buprenorphine-Asp-Carbamate]", 99),
    ("CSCC[C@@H](NC(=O)Oc1ccc2c3c1OC1C(=O)CC[C@@]4(O)[C@@H](C2)N(C)CC[C@]314)C(=O)O (stereo partly shown) [Oxymorphone-Methio-Carbamate]", 96),
    ("CN1CC[C@]23c4c5ccc(OC(=O)N[C@@H](Cc6ccccc6)C(=O)O)c4O[C@H]2C(=O)CC[C@@]3(O)[C@H]1C5 [Oxymorphone-Phe-Carbamate]", 82),
    ("COC12CCC3(CC1C(C)(O)C(C)(C)C)C1Cc4ccc(OC(=O)NC(Cc5ccccc5)C(=O)O)c5c4C3(CCN1CC1CC1)C2O5 (stereo not shown) [Buprenorphine phenylalanine carbamate]", 45),
]

###

# EXPERIMENT SUMMARY: in vivo
# PARTICULARS: beagle, dog, po, 1 mg, Meptazinol AUCt
Structures can show the parent of a compound that is named as a salt.

# COMPOUND, AUC(0-t)
data = [
    ("CCC1(c2cccc(O)c2)CCCCN(C)C1 (stereo not shown) [Meptazinol HCl]", "5.87 ng·h/mL"),
]
